# Test system: NOTCH1
# PROTOCOL TEXT: 3' UTR reporter interaction score (median-centred robust z-score of log2 firefly/Renilla activity); higher = less repression of the 3' UTR reporter
# CONDITION SUMMARY: HEK293T; 48 h
# if value of 3' UTR reporter interaction score reaches 0.1, tag true; if it stays below, tag false

Worked set:
ITEM SEQUENCE	ASSIGNED LABEL
AUCCUUGCUAUCUGGGUGCUA	true
CUCUAGAGGGAAGCGCUUUCUGUU	true

In: Is the recorded value of 3' UTR reporter interaction score equal to or greater than 0.1 for this sequence? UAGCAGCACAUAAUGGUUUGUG
Out: false

In: Is the recorded value of 3' UTR reporter interaction score equal to or greater than 0.1 for this sequence? AAGUGCUUCCUUUUAGAGGGUU
Out: true

In: Is the recorded value of 3' UTR reporter interaction score equal to or greater than 0.1 for this sequence? AAACAAACAUGGUGCACUUCUUU
Out: true

In: Is the recorded value of 3' UTR reporter interaction score equal to or greater than 0.1 for this sequence? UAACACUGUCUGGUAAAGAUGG
Out: false

In: Is the recorded value of 3' UTR reporter interaction score equal to or greater than 0.1 for this sequence? AAAGCGCUUCCCUUCAGAGUGU
Out: true

In: Is the recorded value of 3' UTR reporter interaction score equal to or greater than 0.1 for this sequence? AAAGUGCCUCCUUUUAGAGUGU
Out: false

In: Is the recorded value of 3' UTR reporter interaction score equal to or greater than 0.1 for this sequence? CUUUUUGCGGUCUGGGCUUGC
Out: false

In: Is the recorded value of 3' UTR reporter interaction score equal to or greater than 0.1 for this sequence? AGGUUACCCGAGCAACUUUGCA
Out: true

In: Is the recorded value of 3' UTR reporter interaction score equal to or greater than 0.1 for this sequence? AUCGUGCAUCCCUUUAGAGUGUU
Out: false

In: Is the recorded value of 3' UTR reporter interaction score equal to or greater than 0.1 for this sequence? GAAGUUGUUCGUGGUGGAUUCG
Out: true

In: Is the recorded value of 3' UTR reporter interaction score equal to or greater than 0.1 for this sequence? CAGUAACAAAGAUUCAUCCUUGU
Out: false

In: Is the recorded value of 3' UTR reporter interaction score equal to or greater than 0.1 for this sequence? UUGGUCCCCUUCAACCAGCUGU
Out: false

In: Is the recorded value of 3' UTR reporter interaction score equal to or greater than 0.1 for this sequence? GUGCAUUGUAGUUGCAUUG
Out: true

In: Is the recorded value of 3' UTR reporter interaction score equal to or greater than 0.1 for this sequence? AGGCAGUGUAUUGUUAGCUGGC
Out: false
